Quick reference for pKd among some binders
# Assay System: MAST2, Q6P0Q8
# Sequence (Q6P0Q8 1099-1202): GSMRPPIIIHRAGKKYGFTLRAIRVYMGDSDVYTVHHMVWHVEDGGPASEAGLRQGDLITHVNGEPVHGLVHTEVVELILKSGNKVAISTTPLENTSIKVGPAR
# Procedure Text: holdup assay
# Parameters: key: below the threshold = too weak to quantify, mostly under pKd 3.1 to 4
# Assay Setup: plain residues with an end cap or a label only (N-terminal biotin on a linker: ttds)
Returns: the value as a bare number; no unit string appended.

Worked examples follow.
Binder: DPLTPSRSQL [DGKK, Q5KSL6]
Reported Measurement: 4.36

Binder: SEKHFRETEV [HTLV1-TAX1, P03409]
Reported Measurement: 5.42

Binder: LCALPKVTTV [AGMAT, Q9BSE5]
Reported Measurement: 4.88

Binder: LDSQIQETSI [MAP4, P27816]
Reported Measurement: 5.97

Binder: PKRPFVESNV [TANC2, Q9HCD6]
Reported Measurement: 4.84

Moving on to the next binder.
Entry DPRNTQTSQI [ABRAXAS2, Q15018] , pKd reported as 4.55
